# system under test: Phosphatidylinositol 4,5-bisphosphate 3-kinase catalytic subunit beta isoform (Homo sapiens)
# Sequence (P42338 whole entry, canonical isoform): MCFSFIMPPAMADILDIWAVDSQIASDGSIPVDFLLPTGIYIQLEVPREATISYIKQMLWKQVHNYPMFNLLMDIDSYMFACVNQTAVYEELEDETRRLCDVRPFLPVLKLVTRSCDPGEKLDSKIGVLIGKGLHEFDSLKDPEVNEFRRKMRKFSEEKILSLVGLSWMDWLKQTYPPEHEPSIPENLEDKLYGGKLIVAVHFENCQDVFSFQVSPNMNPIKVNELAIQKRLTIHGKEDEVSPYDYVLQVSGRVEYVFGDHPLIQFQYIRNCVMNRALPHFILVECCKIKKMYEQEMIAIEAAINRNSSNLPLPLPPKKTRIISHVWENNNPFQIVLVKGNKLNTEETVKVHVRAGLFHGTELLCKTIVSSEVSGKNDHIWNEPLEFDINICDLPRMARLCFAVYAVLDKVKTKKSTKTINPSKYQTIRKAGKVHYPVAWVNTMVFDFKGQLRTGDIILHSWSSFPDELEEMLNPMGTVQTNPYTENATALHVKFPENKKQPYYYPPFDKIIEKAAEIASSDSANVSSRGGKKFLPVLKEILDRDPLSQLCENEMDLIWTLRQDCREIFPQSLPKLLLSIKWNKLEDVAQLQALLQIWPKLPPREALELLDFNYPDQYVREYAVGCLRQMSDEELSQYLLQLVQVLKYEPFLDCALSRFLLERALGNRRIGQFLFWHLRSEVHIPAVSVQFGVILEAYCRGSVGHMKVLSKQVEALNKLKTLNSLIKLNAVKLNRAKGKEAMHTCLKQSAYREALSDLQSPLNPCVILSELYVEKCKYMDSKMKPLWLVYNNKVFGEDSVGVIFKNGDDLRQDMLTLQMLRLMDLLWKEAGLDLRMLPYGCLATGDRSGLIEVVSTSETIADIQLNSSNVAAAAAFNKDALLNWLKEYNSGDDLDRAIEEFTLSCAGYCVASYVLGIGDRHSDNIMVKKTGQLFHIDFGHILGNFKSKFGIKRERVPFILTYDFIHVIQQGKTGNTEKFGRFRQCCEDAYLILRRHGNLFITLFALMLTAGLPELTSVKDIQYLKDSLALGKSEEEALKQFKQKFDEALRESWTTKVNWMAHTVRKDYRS
# assay comment: Inhibition of PI3Kbeta (unknown origin)
Property: IC50; scope: individual compounds

Answered cases to consult:
{"columns": ["compound smiles", "IC50"],
 "data": [
  ["Cc1ccc([N+](=O)[O-])cc1C(=O)N1CCC(c2cnn3ccc(Br)cc23)CC1", "> 1000 nM"],
  ["N#Cc1cc(S(=O)(=O)c2nc(-c3cnn4ccc(Br)cc34)cs2)ccc1NCCN1CCOCC1", "> 1000 nM"],
  ["Cc1ccc([N+](=O)[O-])cc1C(=O)N[C@H]1CCCN(Cc2cnn3ccc(C#N)cc23)C1", "> 1000 nM"],
  ["N#Cc1ccc(F)c(S(=O)(=O)c2nc(-c3cnn4ccc(Br)cc34)cs2)c1", "> 1000 nM"]
]}

With those in mind, consider the next compound.
What value of IC50 has been reported for the following compound? `Cc1ccc([N+](=O)[O-])cc1Cc1nc(-c2cnn3ccc(Br)cc23)cs1`
> 1000 nM
